Reference source for all entries: paper PMC7826789

tested on: MEK5; construct: gene MAP2K5; settings: Compound Concentration (nM):1000;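 further: KINOMEscan scanMAX binding as percent activity remaining versus control; lower means stronger binding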
I'd be grateful if you could share measured Percent Control for these entries.
API: value field is a number in %; no unit string.

**Query** Can you look up the measured Percent Control of COc1ccccc1-c1cc(/C=C2\C(=O)Nc3ncc(Br)cc32)cc(Br)c1O [GW442130X] for me?
**Result** 64

**Query** Can you look up the measured Percent Control of Cl.O=C(Nc1ccc(Oc2ccc3[nH]c(NC(=O)c4ccco4)nc3c2)cc1)Nc1cc(C(F)(F)F)ccc1F [GW683134A] for me?
**Result** 19

**Query** Can you look up the measured Percent Control of Cl.O=C(Nc1ccc(Oc2ccc3[nH]c(NC(=O)c4ccccc4)nc3c2)cc1)Nc1cc(C(F)(F)F)ccc1F [GW709042A] for me?
**Result** 51

**Query** Can you look up the measured Percent Control of COc1cccc(-n2ncc3c(N/N=C/c4ccncc4)ncnc32)c1 [GW784752X] for me?
**Result** 2.3

**Query** Can you look up the measured Percent Control of COc1cc2ncn(-c3cc(O[C@H](C)c4ccccc4Cl)c(C(N)=O)s3)c2cc1OC [GSK237701A] for me?
**Result** 59

**Query** Can you look up the measured Percent Control of O=C1Nc2ccc(C(=O)c3ccco3)cc2C1=Cc1cc(Cl)c(O)c(Cl)c1 [GW406108X] for me?
**Result** 72

**Query** Can you look up the measured Percent Control of CCc1ccc(Oc2nccc(-c3c(-c4ccc(F)cc4)ncn3C3CCNCC3)n2)cc1 for me?
**Result** 100

**Query** Can you look up the measured Percent Control of CC1=C(C(=O)Nc2ccc3[nH]ncc3c2)C(c2ccc3ccccc3c2)CC(=O)N1 (centres unmarked) [GSK270822A] for me?
**Result** 70

###

I'd be grateful if you could share measured Percent Control for these entries.
test system: NEK10; conditions: Compound Concentration (nM):1000
API: value field is a number in %; no unit string.

**Query** Can you look up the measured Percent Control of Cl.O=C(Nc1ccc(Oc2ccc3[nH]c(NC(=O)c4ccco4)nc3c2)cc1)Nc1cc(C(F)(F)F)ccc1F [GW683134A] for me?
**Result** 100

**Query** Can you look up the measured Percent Control of COc1ccc2[nH]c3c4[nH]c5ccc(OC)cc5c4c4c(c3c2c1)C(=O)NC4=O [GW296115X] for me?
**Result** 93

**Query** Can you look up the measured Percent Control of COc1cc2ncn(-c3cc(O[C@H](C)c4ccccc4Cl)c(C(N)=O)s3)c2cc1OC [GSK237701A] for me?
**Result** 95

**Query** Can you look up the measured Percent Control of O=C(Nc1n[nH]c2nc(-c3ccc(O)cc3)c(Br)cc12)C1CC1 for me?
**Result** 100

**Query** Can you look up the measured Percent Control of COc1cc(/C=N/Nc2ncnc3[nH]ncc23)ccc1O [GW578748X] for me?
**Result** 100

**Query** Can you look up the measured Percent Control of COc1cc2ncnc(Nc3ccc4c(cnn4Cc4ccccc4)c3)c2cc1OC.Cl [GW282449A] for me?
**Result** 100

###

system: SIK; construct: gene SIK1; conditions: Compound Concentration (nM):1000
I'd be grateful if you could share measured Percent Control for these entries.
API: value field is a number in %; no unit string.

**Query** Given the entry CN(C)c1cc2c(Nc3ccc4c(cnn4Cc4ccccc4)c3)ncnc2cn1 [GW282974X] , what Percent Control was observed with SIK?
**Result** 29

**Query** Given the entry Nc1ncnc2occ(-c3ccc(NC(=O)Nc4cc(C(F)(F)F)ccc4F)cc3)c12 [GW770249X] , what Percent Control was observed with SIK?
**Result** 100

**Query** Given the entry NS(=O)(=O)c1ccc(N/N=C2\C(=O)Nc3ccc(C(=O)NCc4ccncc4)cc32)cc1 [GW300657X] , what Percent Control was observed with SIK?
**Result** 95

**Query** Given the entry Cl.O=C(Nc1ccc(Oc2ccc3[nH]c(NC(=O)c4ccccc4)nc3c2)cc1)Nc1cc(C(F)(F)F)ccc1F [GW709042A] , what Percent Control was observed with SIK?
**Result** 100

###

test system: TLK2; conditions: Compound Concentration (nM):1000
assayEndpoint: Percent Control

**Query** Given the entry C/C(Nc1ccc(S(N)(=O)=O)cc1)=C1/C(=O)Nc2ccccc21 [GW335962X] , what Percent Control was observed with TLK2?
**Result** 65%

**Query** Given the entry Cc1cc(O)cc(C)c1/C=C/c1cncc(C(N)=O)c1 [GW435821X] , what Percent Control was observed with TLK2?
**Result** 100%

**Query** Given the entry COc1ccc2cc(-c3c(-c4ccncc4)nc(-c4ccc(S(C)(=O)=O)cc4C)n3C)ccc2c1 [SB-633825] , what Percent Control was observed with TLK2?
**Result** 100%

**Query** Given the entry Cl.c1ccc(Cc2nc3ccc(Nc4ncnc5ccccc45)cc3[nH]2)cc1 [GR269666A] , what Percent Control was observed with TLK2?
**Result** 100%

**Query** Given the entry CCS(=O)(=O)c1ccc(OC)c(Nc2ncc(-c3cccc(F)c3)o2)c1 [GW621970X] , what Percent Control was observed with TLK2?
**Result** 86%

**Query** Given the entry NS(=O)(=O)c1ccc(Nc2ncc(-c3ccccc3)o2)cc1 [GW572399X] , what Percent Control was observed with TLK2?
**Result** 47%

**Query** Given the entry COc1cc(/C=N/Nc2ncnc3[nH]ncc23)ccc1O [GW578748X] , what Percent Control was observed with TLK2?
**Result** 76%

**Query** Given the entry O=C1Nc2ccc(C(=O)c3ccco3)cc2C1=Cc1cc(Cl)c(O)c(Cl)c1 [GW406108X] , what Percent Control was observed with TLK2?
**Result** 97%

**Query** Given the entry COc1cc(C=NNc2ncnc3c2cnn3-c2ccccc2)ccc1O [GW513184X] , what Percent Control was observed with TLK2?
**Result** 100%

**Query** Given the entry CN(C)c1cc2c(Nc3ccc4c(cnn4Cc4ccccc4)c3)ncnc2cn1 [GW282974X] , what Percent Control was observed with TLK2?
**Result** 80%

**Query** Given the entry COc1cc(N2CCN(C(C)C)CC2)ccc1Nc1nc(Nc2ccc(F)cc2C(=O)NC[C@@H](O)CO)c2cc[nH]c2n1 [GSK1392956A] , what Percent Control was observed with TLK2?
**Result** 92%

**Query** Given the entry COc1ccc2c(-c3ccnc(Nc4cccc(OC(F)(F)F)c4)n3)cnn2n1 [GW810372X] , what Percent Control was observed with TLK2?
**Result** 84%

**Query** Given the entry COc1cc2ncnc(Nc3ccc4c(cnn4Cc4ccccc4)c3)c2cc1OC.Cl [GW282449A] , what Percent Control was observed with TLK2?
**Result** 100%

**Query** Given the entry Cl.O=S1CCN(Cc2ccc(-c3ccc4ncnc(Nc5ccc(OCc6ccccc6)c(F)c5)c4c3)o2)CC1 [GW576924A] , what Percent Control was observed with TLK2?
**Result** 100%

**Query** Given the entry NS(=O)(=O)c1ccc(N/N=C2\C(=O)Nc3ccc(C(=O)NCc4ccncc4)cc32)cc1 [GW300657X] , what Percent Control was observed with TLK2?
**Result** 75%

**Query** Given the entry COc1cc(C)c(N(C)C(=O)CN(C)C)cc1Nc1nc(Nc2cccc(F)c2C(N)=O)c2cc[nH]c2n1 [GSK2219385] , what Percent Control was observed with TLK2?
**Result** 100%

**Query** Given the entry CC(C)COC(=O)c1ccc2c(c1)/C(=C/Nc1ccc(S(N)(=O)=O)cc1)C(=O)N2 [GW416981X] , what Percent Control was observed with TLK2?
**Result** 95%

**Query** Given the entry CCn1c(-c2nonc2N)nc2c(C#CC(C)(C)O)nc(OCCNC)cc21.Cl [GSK949675] , what Percent Control was observed with TLK2?
**Result** 100%

###

I'd be grateful if you could share measured Percent Control for these entries.
system: CIT; conditions: Compound Concentration (nM):1000
API: value field is a number in %; no unit string.

**Query** Given the entry C/C(Nc1ccc(S(N)(=O)=O)cc1)=C1/C(=O)Nc2ccccc21 [GW335962X] , what Percent Control was observed with CIT?
**Result** 86

**Query** Given the entry COc1cc(C=NNc2ncnc3c2cnn3-c2ccccc2)ccc1O [GW513184X] , what Percent Control was observed with CIT?
**Result** 96

**Query** Given the entry Nc1ncnc2occ(-c3ccc(NC(=O)Nc4cc(C(F)(F)F)ccc4F)cc3)c12 [GW770249X] , what Percent Control was observed with CIT?
**Result** 44

**Query** Given the entry COc1ccc(COc2ccc(Cc3cnc(N)nc3N)cc2OC)cc1 [GW632580X] , what Percent Control was observed with CIT?
**Result** 80

**Query** Given the entry O=C1Nc2ccc(C(=O)c3ccco3)cc2C1=Cc1cc(Cl)c(O)c(Cl)c1 [GW406108X] , what Percent Control was observed with CIT?
**Result** 89

**Query** Given the entry CC1=C(C(=O)Nc2ccc3[nH]ncc3c2)C(c2ccc(Cl)c(Cl)c2)CC(=O)N1 (stereo not drawn) [GSK299115A] , what Percent Control was observed with CIT?
**Result** 100

**Query** Given the entry CCn1c(-c2nonc2N)nc2c(C#CC(C)(C)O)nc(OCCNC)cc21.Cl , what Percent Control was observed with CIT?
**Result** 44

**Query** Given the entry COc1cccc(-c2c[nH]c3c(N/N=C/c4ccncc4)ncnc23)c1 [GW814408X] , what Percent Control was observed with CIT?
**Result** 54

**Query** Given the entry Cl.O=C(O[C@H]1CN[C@H](C#Cc2cc3ncnc(Nc4ccc5c(cnn5Cc5ccccc5)c4)c3s2)C1)N1CCOCC1 [GSK200398A] , what Percent Control was observed with CIT?
**Result** 77

**Query** Given the entry Cl.c1ccc(Cc2nc3ccc(Nc4ncnc5ccccc45)cc3[nH]2)cc1 [GR269666A] , what Percent Control was observed with CIT?
**Result** 100

**Query** Given the entry COc1ccc2[nH]c3c4[nH]c5ccc(OC)cc5c4c4c(c3c2c1)C(=O)NC4=O [GW296115X] , what Percent Control was observed with CIT?
**Result** 35

**Query** Given the entry CC(C)COC(=O)c1ccc2c(c1)/C(=C/Nc1ccc(S(N)(=O)=O)cc1)C(=O)N2 [GW416981X] , what Percent Control was observed with CIT?
**Result** 86

**Query** Given the entry CN(C)CCNC(=O)Nc1ccc(N(C)c2ccnc(Nc3ccc(CS(C)(=O)=O)cc3)n2)cc1.Cl [GW830900A] , what Percent Control was observed with CIT?
**Result** 100

**Query** Given the entry COc1ccc2c(-c3ccnc(Nc4cccc(OC(F)(F)F)c4)n3)cnn2n1 [GW810372X] , what Percent Control was observed with CIT?
**Result** 97

**Query** Given the entry NS(=O)(=O)c1ccc(N/N=C2\C(=O)Nc3ccc(C(=O)NCCc4c[nH]cn4)cc32)cc1 [GW300660X] , what Percent Control was observed with CIT?
**Result** 100

**Query** Given the entry CCS(=O)(=O)c1ccc(OC)c(Nc2ncc(-c3cccc(F)c3)o2)c1 [GW621970X] , what Percent Control was observed with CIT?
**Result** 100

**Query** Given the entry CN1CCN(C(=O)c2ccc(NC(=O)Nc3ccc(N(C)c4ccnc(Nc5ccc(CS(C)(=O)=O)cc5)n4)cc3)cc2)CC1.Cl [GW830263A] , what Percent Control was observed with CIT?
**Result** 79

**Query** Given the entry COc1ccccc1-c1cc(/C=C2\C(=O)Nc3ncc(Br)cc32)cc(Br)c1O [GW442130X] , what Percent Control was observed with CIT?
**Result** 89
